target system: T1, human glycophorin A on human red blood cells or red blood cell membranes (human, UniProt P02724 20-150)
T1 construct: whole, on cells; also called hRBC; human RBC membranes
T1 sequence (looked up): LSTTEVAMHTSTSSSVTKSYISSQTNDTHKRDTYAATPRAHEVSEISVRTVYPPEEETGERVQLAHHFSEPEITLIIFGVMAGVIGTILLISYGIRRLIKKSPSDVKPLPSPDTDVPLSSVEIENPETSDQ
protocol text: SPR (Biacore), Fab on human RBC membranes; T½ = 0.69/kd
measurement type: Estimated T½ (min)
Please respond with the number in min and leave the unit unwritten.

Return value of Estimated T½ for input TPP-5906, humanized and germlined 6C12 Fab; VL: (S24R, A26S, S49A, P54Q, F95Y); VH: (I48M, D56G, D66G, L70M, T72R) (Fab, V domains shown, The text says that a 6xHIS tag is present on the Fabs in the peptide ELISA; it is not in the printed chains) VH: EVQLVQSGAEVKKPGASVKVSCKASGYTFTTYTIHWVRQAPGQGLEWMGYINPSSGYTRYNPKFKGRVTMTRDKSTSTAYMELRSLRSDDTAVYYCQTGTRDYWGQGTTVTVSS VL: DIQLTQSPSFLSASVGDRVTITCRASSSVSYIYWFQQKPGKAPKLLIYATSTLQSGVPSRFSGSGSGTEYTLTISSLQPEDFATYYCHQRNSFPYTFGQGTKLEIKR , no commentary.
2

Return value of Estimated T½ for input TPP-7777, affinity matured 6C12 Fab (Fab, V domains shown, Tested as Fab) VH: EVQLVQSGAEVKKPGASVKVSCKASGYTFTTYTIHWVRQAPGQGLEWMGYINPSSGWTRYNPKFKGRVTMTRDKSTSTAYMELRSLRSDDTAVYYCWTGRRDYWGQGTTVTVSS VL: DIQLTQSPSFLSASVGDRVTITCRASSSVSYIYWFQQKPGKAPKLLIYATSTRQSGVPSRFSGSGSGTEYTLTISSLQPEDFATYYCHQRNSFPYTFGQGTKLEIK , no commentary.
31
